Tested on: human MCHR1 (Homo sapiens, UniProt Q99705)
Construct: host or cells: CHO
Sequence (Q99705 whole entry): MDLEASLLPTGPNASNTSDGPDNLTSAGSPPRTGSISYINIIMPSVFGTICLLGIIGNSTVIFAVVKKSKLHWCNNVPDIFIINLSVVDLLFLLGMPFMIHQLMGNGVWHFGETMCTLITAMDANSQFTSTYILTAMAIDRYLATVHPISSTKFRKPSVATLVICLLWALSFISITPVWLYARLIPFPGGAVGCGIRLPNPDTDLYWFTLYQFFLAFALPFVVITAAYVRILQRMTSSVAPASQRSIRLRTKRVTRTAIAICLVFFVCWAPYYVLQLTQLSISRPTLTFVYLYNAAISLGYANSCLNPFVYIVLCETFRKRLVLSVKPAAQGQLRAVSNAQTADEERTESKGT
Assay: Cyclic AMP assay (MCHR-1 functional antagonism)
Type: cell-based
Recorded conditions: CHO cells stably expressing human MCHR1; cAMP accumulation with 25 uM forskolin and 0.2 nM MCH, 90 min; Ki from IC50 by Cheng-Prusoff; read-out: MCHR-1 functional Ki
Catalogue of pKi values
Scale explanation: pKi corresponds to minus log10 of a concentration expressed in moles per litre.

CC1(N)CCN(c2ccc(-n3ccc(OCc4ccccc4)cc3=O)cn2)C1 (single isomer, unassigned) [Example 17b] = 7.42
O=c1cc(OCc2ccc(Cl)cc2)ccn1-c1ccc(N2CCC[C@@H](O)C2)nc1 = 7.18
CN[C@H]1CCN(c2ccc(-n3ccc(OCc4ccc(Cl)cc4F)cc3=O)cn2)C1 = 8.69
CN[C@H]1CCN(c2ccc(-n3ccc(OCc4ccccc4Cl)cc3=O)cn2)C1 = 8.22
CNC1CCN(c2ccc(-n3ccc(OCc4ccccc4)cc3=O)cn2)CC1 [Example 230] = 7.16
O=c1cc(COc2ccc(F)cc2)ccn1-c1ccc(N2CC[C@@H](O)C2)nc1 = 5.96
O=c1cc(OCc2ccc(F)cc2)ccn1-c1ccc(N2CCC[C@H](O)C2)nc1 = 5.94

Next, consider the following molecule.
Answer with the recorded pKi for the molecule listed here: `N[C@H]1CCN(c2ccc(-n3ccc(OCc4ccc(F)cc4)cc3=O)cn2)C1` 7.94

---

Tested on: human MCHR1 (Homo sapiens, UniProt Q99705)
Construct: host or cells: CHO
Assay: Cyclic AMP assay (MCHR-1 functional antagonism)
Type: cell-based
Recorded conditions: CHO cells stably expressing human MCHR1; cAMP accumulation with 25 uM forskolin and 0.2 nM MCH, 90 min; Ki from IC50 by Cheng-Prusoff; read-out: MCHR-1 functional Ki
Measured attribute: pKi
Lab note: report pKi as minus log10 of the concentration in molar units, number only.

Some compounds with known pKi results, for comparison:
CO[C@@H]1CCN(c2ccc(-n3ccc(OCc4ccccc4)cc3=O)cn2)C1 = 7.96
CC(=O)N(C)C1CCN(c2ccc(-n3ccc(OCc4ccccc4)cc3=O)cn2)CC1 = 7.53
O=c1cc(OCc2ccccc2)ccn1-c1ccc(N2CC3CCC(C2)N3)nc1 [Example 69] = 6.91
CC(C)N1C[C@H]2CN(c3ccc(-n4ccc(OCc5ccccc5)cc4=O)cn3)C[C@H]2C1 = 7.97
CCC1CN(c2ccc(-n3ccc(OCc4ccccc4)cc3=O)cn2)CCN1 (centres unmarked) [Example 223] = 6.71

Respond only with pKi recorded for `CNC1CN(c2ccc(-n3ccc(OCc4ccc(F)cc4)cc3=O)cn2)C1` 6.74

Answer with the recorded pKi of `O=c1cc(OCc2ccccc2)ccn1-c1ccc(N2CC[C@H](O)C2)nc1` only. 6.88

Quickly give me recorded pKi for `N[C@@H]1CCN(c2ccc(-n3ccc(OCc4ccc(Cl)cc4)cc3=O)cn2)C1` 8.20

---

Tested on: human MCHR1 (Homo sapiens, UniProt Q99705)
Construct: host or cells: CHO
Assay: Cyclic AMP assay (MCHR-1 functional antagonism)
Assay type: cell-based
Recorded conditions: CHO cells stably expressing human MCHR1; cAMP accumulation with 25 uM forskolin and 0.2 nM MCH, 90 min; Ki from IC50 by Cheng-Prusoff; read-out: MCHR-1 functional Ki
Structures can show the parent of a compound that is named as a salt.
The compounds listed here are annotated with their Ki.
// units = nM; emit number, no label

Below: 2 compounds and their reported Ki.
CN[C@H]1CCN(c2ccc(-n3ccc(OCc4ccccc4)cc3=O)cn2)C1 [Example 13, dihydrochloride] = 4.88
CN[C@H]1CCN(c2ccc(-n3ccc(OCc4cccc(Cl)c4)cc3=O)cn2)C1 [Example 149] = 3.46

// moving on: another record for Ki
Please supply the value of reported Ki for the item CN1C[C@@H]2CN(c3ccc(-n4ccc(OCc5ccccc5)cc4=O)cn3)C[C@@H]2C1 [Example 3] 10.1
